Ref: ChEMBL document CHEMBL3046063

test system: Bacillus pumilus; assay: Antimicrobial activity against Bacillus pumilus ATCC 14884 after 24 hr by broth dilution method; format: functional; conditions: ATCC 14884, 24 h
endpoint: MIC (µg/mL)
Only the number, expressed in µg/mL, is required.

Examples with answers:
> print(dat)
                                   compound  endpoint  recorded.value
1  COc1ccc(C2C(Cl)C(=O)N2/N=C2\C(=O)Nc3ccc(Cl)cc32)cc1 (stereo not given)       MIC            9.37
2  O=C1Nc2ccc(Cl)cc2/C1=N/N1C(=O)C(Cl)C1c1ccccc1Cl (stereo not given)       MIC             300

Answer with reported MIC of O=C1Nc2ccc(Cl)cc2/C1=N/N1C(=O)CSC1c1ccc(F)cc1 (stereo not given)
9.37

Supply recorded MIC for COc1cccc(C2C(Cl)C(=O)N2/N=C2\C(=O)Nc3ccc(Cl)cc32)c1 (stereo not given) here.
75

Read off the recorded MIC for CN(C)c1ccc(C2SCC(=O)N2/N=C2\C(=O)Nc3ccc(Cl)cc32)cc1 (stereo not given)
9.37

###

# MIC per entry
tested on: Bacillus pumilus; experiment: Antimicrobial activity against Bacillus pumilus ATCC 14884 after 24 hr by broth dilution method; type: functional; conditions: ATCC 14884, 24 h

These solved cases illustrate the format of a correct answer.
> print(dat)
                                   molecule  endpoint  recorded.value
1  CN(C)c1ccc(C2C(Cl)C(=O)N2/N=C2\C(=O)Nc3ccc(Cl)cc32)cc1 (stereo unspecified)       MIC      9.37 µg/mL
2  O=C1Nc2ccc(Cl)cc2/C1=N/N1C(=O)C(Cl)C1c1ccccc1 (stereo unspecified)       MIC      37.5 µg/mL
3  O=C1Nc2ccc(Cl)cc2/C1=N/N1C(=O)CSC1c1ccccc1Cl (stereo unspecified)       MIC       150 µg/mL
4  O=C1Nc2ccc(Cl)cc2/C1=N/N1C(=O)CSC1c1ccco1 (stereo unspecified)       MIC      37.5 µg/mL
5  O=C1Nc2ccc(Cl)cc2/C1=N/N1C(=O)CSC1c1ccccc1O (stereo unspecified)       MIC       150 µg/mL

Lab note: next molecule to report on.
Identify MIC associated with the molecule COc1ccc(C2SCC(=O)N2/N=C2\C(=O)Nc3ccc(Cl)cc32)cc1 (stereo unspecified)
18.8 µg/mL

###

Parameter: MIC. Scope: all listed entries.
system: Aspergillus niger; assay: Antimicrobial activity against Aspergillus niger ATCC 9142 after 24 hr by broth dilution method; assay type: functional; conditions: ATCC 9142, 24 h
Give just the number in µg/mL; leave the unit off.

Some solved cases for reference:
> print(dat)
                                   compound  reading.unit  recorded.value
1  O=C1Nc2ccc(Cl)cc2/C1=N/N1C(=O)CSC1c1ccco1 (stereo not drawn)         µg/mL            37.5
2  COc1ccc(C2SCC(=O)N2/N=C2\C(=O)Nc3ccc(Cl)cc32)cc1 (stereo not drawn)         µg/mL            4.68

Answer with the recorded MIC for the compound listed here: O=C1Nc2ccc(Cl)cc2/C1=N/N1C(=O)C(Cl)C1c1ccc(F)cc1 (stereo not drawn)
4.68
